Structures can show the parent of a compound that is named as a salt.
quantity_measured: melting point

INSERT INTO results (compound, test_value) VALUES
  ('CCc1nc(N)nc(N)c1-c1cn(CCOc2ccc(Cl)cc2)nn1 (as salt: hydrochloride)', '173.5 to 175 °C'),
  ('CCc1nc(N)nc(N)c1OCc1cn(-c2cccc(C(=O)O)c2)nn1.Cl', '197.5 to 199.5 °C'),
  ('CCc1nc(N)nc(N)c1OCc1cc(-c2cccc([N+](=O)[O-])c2)no1 (as salt: hydrochloride)', '179.5 to 181.5 °C'),
  ('CCc1nc(N)nc(N)c1-c1cn(Cc2ccc(C(=O)OC)cc2)nn1 (as salt: hydrochloride)', '222 to 223 °C'),
  ('CCc1nc(N)nc(N)c1OCc1cc(-c2ccc([N+](=O)[O-])cc2)no1 (as salt: hydrochloride)', '216 to 218 °C'),
  ('CCc1nc(N)nc(N)c1OCc1csc(-c2ccc(F)cc2)n1 (as salt: hydrochloride)', '226 to 227 °C'),
  ('CCc1nc(N)nc(N)c1OCc1cc(-c2cccc(C(F)(F)F)c2)no1 (as salt: hydrochloride)', '224 to 225.5 °C'),
  ('CCc1nc(N)nc(N)c1OCc1cn(Cc2ccc(C(=O)O)cc2)nn1 (as salt: hydrochloride)', '223.8 to 224.8 °C'),
  ('CCc1nc(N)nc(N)c1OCCCc1cc(-c2cccc(C(=O)OC)c2)no1 (as salt: hydrochloride)', '188 to 189.5 °C'),
  ('CCc1nc(N)nc(N)c1OCc1cc(-c2ccc(Cl)cc2)no1 (as salt: hydrochloride)', '230 to 231.5 °C');

Find the recorded melting point belonging to CCc1nc(N)nc(N)c1-c1cn(-c2ccccc2)nn1 (as salt: hydrochloride) and report it. 273.2 to 274.5 °C

Next compound: CCc1nc(N)nc(N)c1OCc1cn(-c2ccc([N+](=O)[O-])cc2)nn1 (as salt: hydrochloride) 209 to 210.5 °C

Also need CCc1nc(N)nc(N)c1OCCc1cn(-c2cccc(C(=O)O)c2)nn1 (as salt: hydrochloride) , thanks. 246 to 247 °C

Further, for CCc1nc(N)nc(N)c1OCc1csc(-c2ccc(C)cc2)n1 (as salt: hydrochloride) ? 235 to 236 °C

What would you report for CCc1nc(N)nc(N)c1OCc1cc(-c2ccc(C(F)(F)F)cc2)no1 (as salt: hydrochloride) ? 173 to 174.5 °C

// query: CCc1nc(N)nc(N)c1OCc1csc(-c2cccc(C)c2)n1 (as salt: hydrochloride) 232 to 233 °C

Let us now turn to CCc1nc(N)nc(N)c1OCc1cn(-c2ccc(C(=O)O)cc2)nn1 (as salt: hydrochloride) 270.8 to 272 °C

Moving on to CCc1nc(N)nc(N)c1OCc1cc(-c2ccccc2)no1 (as salt: hydrochloride) 221.5 to 222.5 °C

Further, for CCc1nc(N)nc(N)c1-c1cn(CCCOc2ccc(C(=O)OC)cc2)nn1 (as salt: hydrochloride) ? 211 to 212 °C

* * *

tgt: wild type (WT) pfDHFR (Plasmodium falciparum, UniProt P13922, N108S/R59C)
Sequence (P13922 whole entry R59C/N108S): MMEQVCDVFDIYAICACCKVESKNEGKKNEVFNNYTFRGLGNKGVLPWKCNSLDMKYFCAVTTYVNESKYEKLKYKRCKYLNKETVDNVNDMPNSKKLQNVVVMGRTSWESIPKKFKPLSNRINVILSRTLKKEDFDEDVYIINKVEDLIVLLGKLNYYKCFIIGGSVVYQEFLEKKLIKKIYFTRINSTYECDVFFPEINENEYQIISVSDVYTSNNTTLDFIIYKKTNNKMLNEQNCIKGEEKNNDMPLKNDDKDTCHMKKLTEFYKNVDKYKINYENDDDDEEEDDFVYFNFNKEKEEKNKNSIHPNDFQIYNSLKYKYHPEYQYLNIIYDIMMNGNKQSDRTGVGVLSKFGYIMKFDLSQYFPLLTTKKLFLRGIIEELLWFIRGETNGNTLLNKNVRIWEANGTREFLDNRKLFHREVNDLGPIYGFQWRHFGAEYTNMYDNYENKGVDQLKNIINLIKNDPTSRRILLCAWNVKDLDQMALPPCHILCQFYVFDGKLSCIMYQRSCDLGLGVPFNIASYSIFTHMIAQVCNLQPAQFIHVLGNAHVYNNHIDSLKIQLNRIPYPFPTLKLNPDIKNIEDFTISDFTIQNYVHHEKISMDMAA
assay_text: Inhibition of wild type pfDHFR (Ki)
Ki by entry:
Put your answer as a value accompanied by its unit after it.

INSERT INTO results (compound, quantity_measured, test_value) VALUES
  ('CCc1nc(N)nc(N)c1OCc1csc(-c2ccc(OCC(=O)O)cc2)n1', 'Ki', '0.65 nM'),
  ('CCc1nc(N)nc(N)c1OCc1coc(-c2ccc(OCC(=O)O)cc2)n1', 'Ki', '0.84 nM'),
  ('CCc1nc(N)nc(N)c1OCc1csc(-c2ccc(F)cc2)n1', 'Ki', '0.9 nM'),
  ('CCc1nc(N)nc(N)c1OCc1csc(-c2cccc(OCC(=O)O)c2)n1', 'Ki', '0.6 nM'),
  ('CCc1nc(N)nc(N)c1OCc1csc(-c2cccc(C(=O)O)c2)n1.Cl [Compound 66, Hydrochloride]', 'Ki', '0.86 nM');

Quick one: Ki of `CCc1nc(N)nc(N)c1OCc1cc(-c2ccc(Cl)cc2)no1` ? 0.95 nM

How about `CCc1nc(N)nc(N)c1-c1cn(CCCOc2ccc(Cl)cc2)nn1` ? 1.12 nM

Now the compound `CCc1nc(N)nc(N)c1OCc1csc(-c2cccc([N+](=O)[O-])c2)n1` 0.74 nM

Can you check `CCc1nc(N)nc(N)c1-c1cn(Cc2ccc(C(=O)OC)cc2)nn1` next? 3.3 nM

And `CCc1nc(N)nc(N)c1OCc1cc(-c2cccc(OC)c2)no1` ? 0.55 nM

Query `CCc1nc(N)nc(N)c1-c1cn(CCOc2ccc(Cl)cc2)nn1` next 1.14 nM

What would you report for `CCc1nc(N)nc(N)c1-c1cn(Cc2ccc(C(=O)O)cc2)nn1` ? 6.31 nM

Moving on to `CCc1nc(N)nc(N)c1OCc1cc(-c2cccc(C(=O)O)c2)no1` 1.28 nM

* * *

tgt: Human dihydrofolate reductase (hDHFR) (Homo sapiens)
Sequence (P00374 1-187): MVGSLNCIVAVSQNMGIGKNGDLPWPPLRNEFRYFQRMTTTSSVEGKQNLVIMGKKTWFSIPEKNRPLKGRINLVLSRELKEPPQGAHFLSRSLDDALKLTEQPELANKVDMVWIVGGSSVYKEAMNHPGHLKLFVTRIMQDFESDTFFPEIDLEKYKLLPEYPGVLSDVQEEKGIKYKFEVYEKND
pKi: −log10 of the molar value.
Let's look at some compounds and their measured pKi.

Examples with answers:
INSERT INTO measurements (compound_string, test_value) VALUES
  ('CCc1nc(N)nc(N)c1OCc1cc(-c2cccc(C(F)(F)F)c2)no1', '< 4.00'),
  ('CCc1nc(N)nc(N)c1OCc1cn(-c2cccc([N+](=O)[O-])c2)nn1', '< 3.30');

# next compound below
Reported pKi for `CCc1nc(N)nc(N)c1OCc1coc(-c2ccc(Cl)cc2)n1` : what is it? < 4.00

* * *

tgt: Human dihydrofolate reductase (hDHFR) (Homo sapiens, UniProt P00374)
Sequence (P00374 1-187): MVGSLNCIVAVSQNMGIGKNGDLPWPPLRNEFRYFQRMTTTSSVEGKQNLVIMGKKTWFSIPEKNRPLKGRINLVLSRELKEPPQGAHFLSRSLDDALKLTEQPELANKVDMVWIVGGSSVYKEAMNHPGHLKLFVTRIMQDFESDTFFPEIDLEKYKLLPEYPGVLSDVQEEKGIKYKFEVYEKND
quantity_measured: Ki

A selection of reference data follows.
INSERT INTO measurements (compound_string, test_value) VALUES
  ('CCc1nc(N)nc(N)c1OCc1csc(-c2ccc(C)cc2)n1', '> 100 µM'),
  ('CCc1nc(N)nc(N)c1OCc1cc(-c2cccc([N+](=O)[O-])c2)no1', '> 100 µM');

Continue with the next molecule.
What value of Ki has been reported for the following molecule? `CCc1nc(N)nc(N)c1OCc1cc(-c2ccc([N+](=O)[O-])cc2)no1` > 100 µM

* * *

Tested on: P. falciparum TM4/8.2 (wild type)
assay_text: microbe, parasite or virus in culture
Format: cell-based, Plasmodium falciparum
assay_conditions: Plasmodium falciparum; in vitro, wild-type strain TM4/8.2; read-out: IC50 P. falciparum TM4/8.2 (WT)
Recorded measurements of IC50, one per entry
Answer in nM, number only, no unit symbol.

Sample answers from the record:
INSERT INTO results (compound, test_value) VALUES
  ('CCc1nc(N)nc(N)c1OCc1cc(-c2ccc(OC)cc2)no1 [Compound 42]', 1190),
  ('CCc1nc(N)nc(N)c1OCc1coc(-c2cccc(C)c2)n1 [Compound 51]', 830);

As a next step, examine the compound that follows.
GET /values?readout=IC50&item= CCc1nc(N)nc(N)c1-c1cn(CCOc2ccc(C(=O)OC)cc2)nn1 [Compound 10] 880

* * *

Recorded pIC50, one value per entry.
assay_text: in vitro
assay_conditions: African green monkey
pIC50: −log10 of the molar value.

INSERT INTO assay_data (molecule, quantity_measured, test_value) VALUES
  ('CCc1nc(N)nc(N)c1OCc1csc(-c2ccccc2)n1 [Compound 60]', 'pIC50', '< 4.30'),
  ('CCc1nc(N)nc(N)c1OCc1csc(-c2ccc(OCC(=O)OCc3ccccc3)cc2)n1 [Compound 72]', 'pIC50', '< 4.30');

Need pIC50, item CCc1nc(N)nc(N)c1-c1cn(CCc2ccccc2)nn1 [Compound 7] < 4.30

Moving on to CCc1nc(N)nc(N)c1OCc1csc(-c2cccc(C(=O)OC)c2)n1 [Compound 65] < 4.30

// repeat for CCc1nc(N)nc(N)c1-c1cn(-c2cccc(C(=O)O)c2)nn1.Cl [Compound 2, Hydrochloride] and report < 5.00

Request: CCc1nc(N)nc(N)c1-c1cn(Cc2ccccc2)nn1 [Compound 3] < 4.30

Follow-up item: CCc1nc(N)nc(N)c1OCc1cc(-c2cccc([N+](=O)[O-])c2)no1 [Compound 39] < 4.30

src = patent US11028072B2
